Recorded values, source ChEMBL document CHEMBL3351667.

test: Intrinsic clearance in rat liver microsomes assessed per mg protein at 1 uM in presence of NADPH after 0.5 to 30 mins by LC/MS/MS method; format: ADME; settings: read-out: CLH
readout.label: microsomal CLint at 1 µM (µL/min/mg)

>>> print(df.to_string())
                                   compound             readout_label  units_text  experimental_value
0  COc1cc2ncnc(Nc3ccc(F)c(Cl)c3)c2cc1NC(=O)/C(F)=C/CN1CCCCC1  microsomal CLint at 1 µM   µL/min/mg                  11
1  C=CC(=O)Nc1cc2c(Nc3ccc(F)c(Cl)c3)ncnc2cc1OCCCN1CCOCC1 [CANERTINIB]  microsomal CLint at 1 µM   µL/min/mg                 105
2  CN(C)C/C=C(\F)C(=O)Nc1cc2c(Nc3ccc(F)c(Cl)c3)ncnc2cc1O[C@H]1CCOC1  microsomal CLint at 1 µM   µL/min/mg                  14
3  CN(C)C/C=C/C(=O)Nc1cc2c(Nc3ccc(F)c(Cl)c3)ncnc2cc1O[C@H]1CCOC1 [AFATINIB]  microsomal CLint at 1 µM   µL/min/mg                  12

1 = COc1cc2ncnc(Nc3ccc(F)c(Cl)c3)c2cc1NC(=O)/C(F)=C/CN(C)C
2 = CCOc1cc2ncnc(Nc3ccc(OCc4ccccn4)c(Cl)c3)c2cc1NC(=O)/C(F)=C/CN(C)C
# compare microsomal CLint at 1 µM for 1 vs 2 ; return the one with the smaller value Label of pick, please.
1
(1: 18 µL/min/mg, 2: 33 µL/min/mg)
